biological target: ROCK2 (Homo sapiens, UniProt O75116); construct: purchased DiscoverX (KINOMEscan KdELECT service); host or cells: E. coli BL21-derived (T7 phage) or HEK-293; assay: ROCK2 kinase binding affinity, DiscoverX KINOMEscan KdELECT; conditions: equilibrium dissociation constant, 11-point 3-fold dilution series; read-out: Kd (μM) ROCK2
Sequence (O75116 whole entry): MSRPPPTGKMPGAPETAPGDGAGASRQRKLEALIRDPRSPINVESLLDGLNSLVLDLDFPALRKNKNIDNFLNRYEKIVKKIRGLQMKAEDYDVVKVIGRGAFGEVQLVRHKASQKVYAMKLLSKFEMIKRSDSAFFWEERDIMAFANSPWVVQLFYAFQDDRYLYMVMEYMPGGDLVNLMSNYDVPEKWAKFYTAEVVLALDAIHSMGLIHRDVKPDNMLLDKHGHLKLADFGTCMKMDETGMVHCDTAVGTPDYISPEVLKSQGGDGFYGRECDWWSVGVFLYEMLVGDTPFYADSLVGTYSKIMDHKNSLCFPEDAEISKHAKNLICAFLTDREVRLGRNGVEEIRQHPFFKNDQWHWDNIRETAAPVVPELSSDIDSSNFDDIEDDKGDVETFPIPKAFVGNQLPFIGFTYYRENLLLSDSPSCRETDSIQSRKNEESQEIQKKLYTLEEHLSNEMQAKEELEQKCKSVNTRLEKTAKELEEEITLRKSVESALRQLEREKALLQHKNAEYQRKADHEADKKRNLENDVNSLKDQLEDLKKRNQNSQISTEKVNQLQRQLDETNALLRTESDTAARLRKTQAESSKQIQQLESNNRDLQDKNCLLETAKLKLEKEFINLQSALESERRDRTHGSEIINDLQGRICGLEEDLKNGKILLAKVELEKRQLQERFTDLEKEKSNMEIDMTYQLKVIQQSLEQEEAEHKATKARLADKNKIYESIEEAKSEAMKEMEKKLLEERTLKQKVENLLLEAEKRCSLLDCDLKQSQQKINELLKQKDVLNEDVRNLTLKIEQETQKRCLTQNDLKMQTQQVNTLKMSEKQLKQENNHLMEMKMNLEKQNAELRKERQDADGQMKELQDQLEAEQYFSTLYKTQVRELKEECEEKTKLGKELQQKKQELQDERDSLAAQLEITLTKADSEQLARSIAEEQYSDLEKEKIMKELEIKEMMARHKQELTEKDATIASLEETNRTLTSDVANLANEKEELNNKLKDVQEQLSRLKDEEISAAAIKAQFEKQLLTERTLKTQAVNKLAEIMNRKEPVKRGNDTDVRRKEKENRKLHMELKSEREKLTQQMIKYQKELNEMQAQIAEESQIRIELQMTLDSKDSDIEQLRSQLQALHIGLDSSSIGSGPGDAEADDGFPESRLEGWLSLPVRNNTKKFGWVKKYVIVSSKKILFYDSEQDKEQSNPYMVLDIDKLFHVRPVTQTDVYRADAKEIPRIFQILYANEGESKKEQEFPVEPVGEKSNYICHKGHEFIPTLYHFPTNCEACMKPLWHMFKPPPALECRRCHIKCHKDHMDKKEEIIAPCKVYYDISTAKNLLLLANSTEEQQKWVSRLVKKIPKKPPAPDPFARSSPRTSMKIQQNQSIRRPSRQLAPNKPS
PARAMETER_MEASURED: Kd (µM)

INSERT INTO assay_data (compound, study_target, reading) VALUES
  ('Fc1ccc(C2CCN(c3nccc(-c4nccc(C#Cc5ccc6[nH]ncc6c5)n4)n3)C2)cc1 (centres unmarked)', 'ROCK2 (Homo sapiens, UniProt O75116)', 0.36),
  ('Fc1ccc2c(c1)CN(c1nccc(-c3nccc(C#Cc4cnc5[nH]ncc5c4)n3)n1)C2', 'ROCK2 (Homo sapiens, UniProt O75116)', 0.29),
  ('COc1ccc2c(c1)CN(c1nccc(-c3nccc(C#Cc4ccc5c(N)nccc5c4)n3)n1)C2', 'ROCK2 (Homo sapiens, UniProt O75116)', 8.2),
  ('FC(F)(F)c1nnc2n1CCN(c1nccc(-c3nccc(C#Cc4ccc5[nH]ncc5c4)n3)n1)C2', 'ROCK2 (Homo sapiens, UniProt O75116)', 0.21),
  ('Clc1ccc(C2CN(c3nccc(-c4nccc(C#Cc5ccc6[nH]ncc6c5)n4)n3)C2)cc1', 'ROCK2 (Homo sapiens, UniProt O75116)', 0.22),
  ('COc1ccc2c(c1)CN(c1nccc(-c3nccc(C#Cc4cnc5[nH]ncc5c4)n3)n1)C2', 'ROCK2 (Homo sapiens, UniProt O75116)', 0.68),
  ('Oc1cc2c(cn1)CN(c1nccc(-c3nccc(C#Cc4ccc5[nH]ncc5c4)n3)n1)C2', 'ROCK2 (Homo sapiens, UniProt O75116)', 0.26),
  ('CN1CCN(c2ccc3c(c2)CN(c2nccc(-c4nccc(C#Cc5ccc6[nH]ncc6c5)n4)n2)C3)CC1', 'ROCK2 (Homo sapiens, UniProt O75116)', 0.083);

====

target: ROCK2 (Homo sapiens); construct: purchased DiscoverX (KINOMEscan KdELECT service); host or cells: E. coli BL21-derived (T7 phage) or HEK-293; assay: ROCK2 kinase binding affinity, DiscoverX KINOMEscan KdELECT; conditions: equilibrium dissociation constant, 11-point 3-fold dilution series; read-out: Kd (μM) ROCK2
Counter-ions that a name gives are not always drawn.
Simple rule here: Kd less than 0.02 µM is rule met, otherwise rule not met.

INSERT INTO assay_data (molecule, study_target, class_assignment) VALUES
  ('C(#Cc1ccnc(-c2ccnc(N3Cc4ncsc4C3)n2)n1)c1ccc2[nH]ncc2c1', 'ROCK2 (Homo sapiens)', 'rule not met'),
  ('COCCOc1ccc2c(c1)CN(c1nccc(-c3nccc(C#Cc4ccc5[nH]ncc5c4)n3)n1)C2', 'ROCK2 (Homo sapiens)', 'rule met'),
  ('C(#Cc1ccnc(-c2ccnc(N3CC(c4ccccc4)C3)n2)n1)c1ccc2[nH]ncc2c1 [Ex. 48, trifluoroacetate]', 'ROCK2 (Homo sapiens)', 'rule not met'),
  ('COc1ccc2c(c1)CN(c1nccc(-c3nccc(C#Cc4ccc(C(=O)O)cc4)n3)n1)C2', 'ROCK2 (Homo sapiens)', 'rule not met'),
  ('Fc1cc(C#Cc2ccc3[nH]ncc3c2)cc(-c2ccnc(N3Cc4ccc(Cl)cc4C3)n2)c1', 'ROCK2 (Homo sapiens)', 'rule not met'),
  ('FC(F)(F)c1ccc2c(c1)CN(c1nccc(-c3nccc(C#Cc4ccc5[nH]ncc5c4)n3)n1)C2 [Ex. 45, trifluoroacetate]', 'ROCK2 (Homo sapiens)', 'rule met'),
  ('CNC(=O)c1ccc(C#Cc2ccnc(-c3ccnc(N4Cc5ccc(OC)cc5C4)n3)n2)cc1', 'ROCK2 (Homo sapiens)', 'rule not met'),
  ('Fc1ccc2c(c1)CN(c1ccnc(-c3ccnc(C#Cc4ccc5[nH]ncc5c4)n3)n1)C2', 'ROCK2 (Homo sapiens)', 'rule not met');

====

target: ROCK2 (Homo sapiens, UniProt O75116); construct: purchased DiscoverX (KINOMEscan KdELECT service); host or cells: E. coli BL21-derived (T7 phage) or HEK-293; assay: ROCK2 kinase binding affinity, DiscoverX KINOMEscan KdELECT; settings: ROCK2 over ROCK1, from Kd values; N/C = not calculated
Structures can show the parent of a compound that is named as a salt.
As shown below, each of these compounds has a reported ROCK 2 Selectivity value.
PARAMETER_MEASURED: ROCK 2 Selectivity

INSERT INTO results (compound, study_target, relation_sign, reading) VALUES
  ('C(#Cc1ccnc(-c2ccnc(N3Cc4c[nH]nc4C3)n2)n1)c1ccc2[nH]ncc2c1', 'ROCK2 (Homo sapiens, UniProt O75116)', '>', 417),
  ('N#Cc1ccc(C2CN(c3nccc(-c4nccc(C#Cc5ccc6[nH]ncc6c5)n4)n3)C2)cc1 [Ex. 50, trifluoroacetate]', 'ROCK2 (Homo sapiens, UniProt O75116)', '=', 45),
  ('Brc1ccc2c(c1)CN(c1nccc(-c3nccc(C#Cc4ccc5[nH]ncc5c4)n3)n1)C2', 'ROCK2 (Homo sapiens, UniProt O75116)', '=', 132.8),
  ('CNC(=O)COc1ccc2c(c1)CN(c1nccc(-c3nccc(C#Cc4ccc5[nH]ncc5c4)n3)n1)C2', 'ROCK2 (Homo sapiens, UniProt O75116)', '=', 32.6),
  ('CN1CCN(c2ccc3c(c2)CN(c2nccc(-c4cccc(C#Cc5ccc6[nH]ncc6c5)n4)n2)C3)CC1', 'ROCK2 (Homo sapiens, UniProt O75116)', '>', 45),
  ('CN(C)C(=O)COc1cc2c(cn1)CN(c1nccc(-c3nccc(C#Cc4ccc5[nH]ncc5c4)n3)n1)C2', 'ROCK2 (Homo sapiens, UniProt O75116)', '=', 4.37),
  ('Oc1cc2c(cn1)CN(c1nccc(-c3nccc(C#Cc4ccc5[nH]ncc5c4)n3)n1)C2', 'ROCK2 (Homo sapiens, UniProt O75116)', '>', 23),
  ('COc1ccc2c(c1)CN(c1nccc(-c3nccc(C#Cc4ccc5c(N)nccc5c4)n3)n1)C2', 'ROCK2 (Homo sapiens, UniProt O75116)', '>', 3.66),
  ('COC(=O)c1ccc(C2CN(c3nccc(-c4nccc(C#Cc5ccc6[nH]ncc6c5)n4)n3)C2)cc1 [Ex. 49, trifluoroacetate]', 'ROCK2 (Homo sapiens, UniProt O75116)', '>', 120),
  ('CC1CN(c2ccc3c(c2)CN(c2nccc(-c4nccc(C#Cc5ccc6[nH]ncc6c5)n4)n2)C3)CCO1 (stereo not shown)', 'ROCK2 (Homo sapiens, UniProt O75116)', '=', 45.8),
  ('CN(C)CCOc1ccc2c(c1)CN(c1nccc(-c3nccc(C#Cc4ccc5[nH]ncc5c4)n3)n1)C2', 'ROCK2 (Homo sapiens, UniProt O75116)', '=', 25.8),
  ('Fc1ccc(C2CCN(c3nccc(-c4nccc(C#Cc5ccc6[nH]ncc6c5)n4)n3)CC2)cc1', 'ROCK2 (Homo sapiens, UniProt O75116)', '=', 35.6),
  ('C(#Cc1ccnc(-c2ccnc(N3CCN(c4ccccc4)CC3)n2)n1)c1ccc2[nH]ncc2c1', 'ROCK2 (Homo sapiens, UniProt O75116)', '=', 26.5),
  ('Fc1ccc2c(c1)CN(c1ccnc(-c3ccnc(C#Cc4ccc5[nH]ncc5c4)n3)n1)C2', 'ROCK2 (Homo sapiens, UniProt O75116)', '=', 2.87),
  ('C(#Cc1ccnc(-c2ccnc(N3Cc4ncsc4C3)n2)n1)c1ccc2[nH]ncc2c1', 'ROCK2 (Homo sapiens, UniProt O75116)', '=', 142),
  ('COc1ccc2c(c1)CN(c1nccc(-c3nccc(C#Cc4ccc5[nH]nc(F)c5c4)n3)n1)C2', 'ROCK2 (Homo sapiens, UniProt O75116)', '>', 1500);

====

# log10(Kd) per record follows
molecular target: ROCK1 (Homo sapiens); construct: purchased DiscoverX (KINOMEscan KdELECT service); host or cells: E. coli BL21-derived (T7 phage) or HEK-293; assay: ROCK1 kinase binding affinity, DiscoverX KINOMEscan KdELECT; settings: equilibrium dissociation constant, 11-point 3-fold dilution series
Sequence (Q13464 whole entry): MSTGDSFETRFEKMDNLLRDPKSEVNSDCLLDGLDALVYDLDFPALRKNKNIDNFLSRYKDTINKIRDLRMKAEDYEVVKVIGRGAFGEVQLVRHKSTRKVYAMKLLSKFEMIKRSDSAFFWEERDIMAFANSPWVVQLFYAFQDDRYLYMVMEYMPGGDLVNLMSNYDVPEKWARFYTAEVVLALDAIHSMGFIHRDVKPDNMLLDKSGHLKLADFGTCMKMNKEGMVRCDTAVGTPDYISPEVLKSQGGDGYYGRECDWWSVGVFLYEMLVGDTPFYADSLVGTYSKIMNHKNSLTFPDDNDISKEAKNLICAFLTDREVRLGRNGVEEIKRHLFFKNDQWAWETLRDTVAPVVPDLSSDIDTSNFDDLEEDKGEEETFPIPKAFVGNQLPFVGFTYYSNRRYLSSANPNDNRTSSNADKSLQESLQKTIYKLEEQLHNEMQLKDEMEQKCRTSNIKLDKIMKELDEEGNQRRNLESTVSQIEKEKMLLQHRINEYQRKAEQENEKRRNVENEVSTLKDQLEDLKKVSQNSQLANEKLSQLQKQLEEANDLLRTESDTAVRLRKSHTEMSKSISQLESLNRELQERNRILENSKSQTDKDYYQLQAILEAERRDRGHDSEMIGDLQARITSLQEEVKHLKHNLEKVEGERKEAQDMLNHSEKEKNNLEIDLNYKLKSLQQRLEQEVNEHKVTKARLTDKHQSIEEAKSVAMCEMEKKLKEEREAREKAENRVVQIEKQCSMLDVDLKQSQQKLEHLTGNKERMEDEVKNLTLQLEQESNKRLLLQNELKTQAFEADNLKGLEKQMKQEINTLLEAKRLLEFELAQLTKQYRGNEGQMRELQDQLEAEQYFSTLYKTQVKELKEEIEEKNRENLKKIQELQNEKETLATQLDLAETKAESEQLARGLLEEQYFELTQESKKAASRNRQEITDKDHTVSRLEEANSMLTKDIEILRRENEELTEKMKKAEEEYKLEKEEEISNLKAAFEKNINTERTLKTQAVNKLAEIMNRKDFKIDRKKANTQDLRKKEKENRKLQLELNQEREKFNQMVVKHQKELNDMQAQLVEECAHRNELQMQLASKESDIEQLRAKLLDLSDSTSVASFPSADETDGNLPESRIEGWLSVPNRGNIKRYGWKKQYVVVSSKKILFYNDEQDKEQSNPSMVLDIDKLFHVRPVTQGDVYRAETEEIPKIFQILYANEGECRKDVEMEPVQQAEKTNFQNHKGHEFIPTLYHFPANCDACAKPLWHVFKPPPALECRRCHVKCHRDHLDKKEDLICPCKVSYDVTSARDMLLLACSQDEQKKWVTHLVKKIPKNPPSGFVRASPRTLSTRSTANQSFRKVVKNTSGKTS
Structures can show the parent of a compound that is named as a salt.
PARAMETER_MEASURED: log10(Kd) (log10 of the value in µM)

INSERT INTO assay_data (compound, study_target, parameter_measured, reading) VALUES
  ('COCCN1CCN(c2cc3c(cn2)CN(c2nccc(-c4nccc(C#Cc5ccc6[nH]ncc6c5)n4)n2)C3)CC1 [Ex. 36, trifluoroacetate salt]', 'ROCK1 (Homo sapiens)', 'log10(Kd)', -1.16),
  ('CN1CCN(c2ccc3c(c2)CN(c2nccc(-c4nccc(C#Cc5ccc6[nH]ncc6c5)n4)n2)C3)CC1', 'ROCK1 (Homo sapiens)', 'log10(Kd)', 1.08),
  ('C(#Cc1ccnc(-c2ccnc(N3Cc4ncsc4C3)n2)n1)c1ccc2[nH]ncc2c1', 'ROCK1 (Homo sapiens)', 'log10(Kd)', 0.53),
  ('Fc1ccc2c(c1)CN(c1nccc(-c3nccc(C#Cc4ccc5[nH]ncc5c4)n3)n1)C2', 'ROCK1 (Homo sapiens)', 'log10(Kd)', 0.96),
  ('Clc1ccc(C2CN(c3nccc(-c4nccc(C#Cc5ccc6[nH]ncc6c5)n4)n3)C2)cc1', 'ROCK1 (Homo sapiens)', 'log10(Kd)', 0.83),
  ('C(#Cc1ccnc(-c2ccnc(N3CCC(c4ccccc4)C3)n2)n1)c1ccc2[nH]ncc2c1 (stereo not shown)', 'ROCK1 (Homo sapiens)', 'log10(Kd)', 0.97),
  ('N#Cc1ccc(C2CN(c3nccc(-c4nccc(C#Cc5ccc6[nH]ncc6c5)n4)n3)C2)cc1 [Ex. 50, trifluoroacetate]', 'ROCK1 (Homo sapiens)', 'log10(Kd)', 0.73);
